Cited source for all entries: patent US12577248B2

Reported IC50 values for the following compounds.
# systemName: SYK kinase (Homo sapiens)
# testName: SYK kinase assay (HTRF KinEASE-TK)
# Assay type: biochemical
# conditionLabel: class symbols, read-out: Syk inhibition IC50
measurementKind: IC50

• COc1cc(Nc2nc(-c3ccc4cn[nH]c4c3)cn3ncnc23)cc(OC)c1OC = 50 to 500 nM
• FC(F)(F)Oc1cc(Nc2nc(-c3ccc4cn[nH]c4c3)cn3ncnc23)ccc1N1CCOCC1 = 50 to 500 nM
• c1cc2cc(-c3cn4cnnc4c(Nc4ccc(N5CCOCC5)cc4)n3)ccc2[nH]1 = > 5000 nM
• c1nc2c(Nc3ccc(N4CC5CC4CN5C4COC4)c(OC4CC4)c3)nc(-c3ccc4cc[nH]c4c3)cn2n1 (stereo not drawn) = 500 to 5000 nM
• c1nc2c(Nc3ccc(N4CCC5(COC5)C4)cc3)nc(-c3ccc4cc[nH]c4c3)cn2n1 = > 5000 nM
• c1cc(N2CCOCC2)ncc1Nc1nc(-c2ccc3cn[nH]c3c2)cn2cnnc12 = > 5000 nM
• NC(=O)c1cccc(-c2cn3ncnc3c(Nc3ccc(N4CCOCC4)cc3)n2)c1 = 50 to 500 nM
• Cc1cc(Nc2nc(-c3ccc4cn[nH]c4c3)cn3cnnc23)ccc1N1CCOCC1 = > 5000 nM
• CC1(O)CCN(c2ccc(Nc3nc(-c4ccc5cn[nH]c5c4)cn4ncnc34)cc2)CC1 = ≤ 50 nM

====

# testName: In vivo pharmacokinetic analysis, single dose, ICR mice
# conditionLabel: mouse, male, plasma, PO Administration (10 mg/kg), single dose
measurementKind: Tmax

• COc1cc(Nc2nc(-c3ccc4cc[nH]c4c3)cn3ncnc23)ccc1N1CCN(C2COC2)CC1 [I58] = 15 min
• COc1cc(Nc2nc(-c3ccc4cn[nH]c4c3)cn3ncnc23)ccc1N1CCOCC1 [I1] = 30 min
• COc1cc(Nc2nc(-c3ccc4cc[nH]c4c3)cn3ncnc23)ccc1N1CCOCC1 [I2] = 15 min
• COc1cc(Nc2nc(-c3ccc4cn[nH]c4c3)cn3ncnc23)ccc1N1CCN(C2COC2)CC1 [I54] = 15 min
• c1nc2c(Nc3ccc(N4CCN(C5COC5)CC4)cc3)nc(-c3ccc4cn[nH]c4c3)cn2n1 [I53] = 15 min
• c1nc2c(Nc3ccc(N4CCN(C5COC5)CC4)cc3)nc(-c3ccc4cc[nH]c4c3)cn2n1 [I57] = 15 min
• c1nc2c(Nc3ccc(N4CCOCC4)cc3)nc(-c3ccc4cc[nH]c4c3)cn2n1 [I10] = 240 min
• COc1cc(Nc2nc(-c3ccc4cn[nH]c4c3)cn3ncnc23)ccc1N1CCC(C)(O)CC1 [I22] = 15 min

====

# systemName: SYK kinase (Homo sapiens)
# testName: SYK kinase assay (HTRF KinEASE-TK)
# Assay type: biochemical
# conditionLabel: class symbols, read-out: Syk inhibition IC50
measurementKind: IC50

- Fc1cc(Nc2nc(-c3ccc4cn[nH]c4c3)cn3cnnc23)ccc1N1CCOCC1: > 5000 nM
- c1cc(N2CCOCC2)ccc1Nc1nc(-c2ccc3[nH]ncc3c2)cn2cnnc12: > 5000 nM
- Nc1cncc(-c2cn3ncnc3c(Nc3ccc(N4CCN(C5COC5)CC4)cc3)n2)n1: ≤ 50 nM
- CC(C)Oc1cc(Nc2nc(-c3ccc4cn[nH]c4c3)cn3ncnc23)ccc1N1CCOCC1: 50 to 500 nM
- c1nc2c(Nc3ccc(N4CCOCC4)c(OC4CC4)c3)nc(-c3ccc4cn[nH]c4c3)cn2n1: 50 to 500 nM
- COc1cc(Nc2nc(-c3ccc4cn[nH]c4c3)cn3ncnc23)ccc1N1CCN(C2CC2)CC1: ≤ 50 nM
- COc1cc(Nc2nc(-c3ccc4cn[nH]c4c3)cn3ncnc23)ccc1N1CCN(C2COC2)CC1: ≤ 50 nM
- COc1ccc(Nc2nc(-c3cnc4c(c3)OCC(=O)N4)cn3ncnc23)cc1OC: 50 to 500 nM
- COc1cc(Nc2nc(-c3cnc4c(c3)OCC(=O)N4)cn3ncnc23)cc(OC)c1OC: > 5000 nM
- Fc1n[nH]c2cc(-c3cn4cnnc4c(Nc4ccc(N5CCOCC5)cc4)n3)ccc12: > 5000 nM
- c1nc2c(Nc3ccc(N4CCN(C5COC5)CC4)cc3)nc(-c3ccc4cn[nH]c4c3)cn2n1: ≤ 50 nM
- COc1cc(Nc2nc(-c3cnc4c(c3)OC(C)(C)C(=O)N4)cn3ncnc23)cc(OC)c1OC: > 5000 nM
- CC1(C)Oc2cc(-c3cn4ncnc4c(Nc4ccc5c(c4)OC(F)(F)O5)n3)cnc2NC1=O: > 5000 nM
- COc1cc(Nc2nc(-c3ccc4c(c3)N=CC4)cn3ncnc23)ccc1N1CC2(COC2)C1: ≤ 50 nM
- COc1cc(Nc2nc(-c3ccc4cc[nH]c4c3)cn3ncnc23)ccc1N1CC2CC1CN2C1COC1 (stereo not shown): ≤ 50 nM
- FC(F)Oc1cc(Nc2nc(-c3ccc4cn[nH]c4c3)cn3ncnc23)ccc1N1CCOCC1: ≤ 50 nM
- COc1cc(Nc2nc(-c3ccc4[nH]ncc4c3)cn3cnnc23)ccc1N1CCOCC1: 500 to 5000 nM
- COc1ccc(Nc2nc(-c3cnc4c(c3)OC(C)(C)C(=O)N4)cn3ncnc23)cc1OC: 50 to 500 nM
- FC(F)Oc1cc(Nc2nc(-c3ccc4cc[nH]c4c3)cn3ncnc23)ccc1N1CC2CC1CN2C1COC1 (stereo not shown): ≤ 50 nM
- Clc1cc(Nc2nc(-c3ccc4cn[nH]c4c3)cn3cnnc23)ccc1N1CCOCC1: > 5000 nM
- COc1cc(Nc2nc(-c3ccc4cn[nH]c4c3)cn3ncnc23)ccc1N1CCN(C(C)C)CC1: ≤ 50 nM
- c1nc2c(Nc3ccc(N4CCN(C5COC5)CC4)cc3)nc(-c3ccc4cc[nH]c4c3)cn2n1: ≤ 50 nM
- c1nc2c(Nc3ccc(N4CCC5(COC5)C4)cc3)nc(-c3ccc4cn[nH]c4c3)cn2n1: > 5000 nM
- c1nc2c(Nc3ccc(N4CC5CC4CN5C4COC4)cc3)nc(-c3ccc4cc[nH]c4c3)cn2n1 (stereo not shown): ≤ 50 nM
- O=C1COc2cc(-c3cn4ncnc4c(Nc4ccc(N5CCOCC5)cc4)n3)cnc2N1: 50 to 500 nM
- COc1cc(Nc2nc(-c3ccc4c(F)n[nH]c4c3)cn3cnnc23)ccc1N1CCOCC1: > 5000 nM
- FC(F)(F)Oc1cc(Nc2nc(-c3ccc4cc[nH]c4c3)cn3ncnc23)ccc1N1CC2CC1CN2C1COC1 (stereo not shown): 50 to 500 nM
- CC1(C)Oc2cc(-c3cn4ncnc4c(Nc4ccc(N5CCOCC5)cc4)n3)ccc2NC1=O: 50 to 500 nM
- CC(C)N1C[C@@H]2C[C@@H]1CN2c1ccc(Nc2nc(-c3ccc4[nH]ncc4c3)cn3ncnc23)cc1: 50 to 500 nM
- COc1cc(Nc2nc(-c3ccc4cn[nH]c4c3)cn3ncnc23)ccc1N1CCS(=O)(=O)CC1: ≤ 50 nM
- COc1cc(Nc2nc(-c3ccc4cn[nH]c4c3)cn3ncnc23)ccc1N1CCN(CCO)CC1: ≤ 50 nM
- COc1cc(Nc2nc(-c3cncc(N)n3)cn3ncnc23)ccc1N1CCN(C2COC2)CC1: 50 to 500 nM
- COc1cc(Nc2nc(-c3ccc4c(c3)OC(C)(C)C(=O)N4)cn3ncnc23)ccc1N1CCOCC1: 50 to 500 nM
- CN1CCN(c2ccc(Nc3nc(-c4ccc5cn[nH]c5c4)cn4ncnc34)cc2)CC1: ≤ 50 nM

====

# testName: In vivo pharmacokinetic analysis, single dose, ICR mice
# conditionLabel: mouse, male, plasma, IV Administration (2 mg/kg), single dose
Reported half-life values for the following compounds.
measurementKind: half-life (min)

- COc1cc(Nc2nc(-c3ccc4cn[nH]c4c3)cn3ncnc23)ccc1N1CCN(C2COC2)CC1: 39
- c1nc2c(Nc3ccc(N4CCN(C5COC5)CC4)cc3)nc(-c3ccc4cn[nH]c4c3)cn2n1: 590
- COc1cc(Nc2nc(-c3ccc4cn[nH]c4c3)cn3ncnc23)ccc1N1CCOCC1: 15

====

Reported log10 Cmax values for the following compounds.
# testName: In vivo pharmacokinetic analysis, single dose, ICR mice
# conditionLabel: mouse, male, plasma, PO Administration (10 mg/kg), single dose
measurementKind: log10 Cmax (log10 of the value in ng/mL)

* COc1cc(Nc2nc(-c3ccc4cc[nH]c4c3)cn3ncnc23)ccc1N1CCN(C2COC2)CC1 [I58] | 3.41
* c1nc2c(Nc3ccc(N4CCOCC4)cc3)nc(-c3ccc4cc[nH]c4c3)cn2n1 [I10] | 3.33
* COc1cc(Nc2nc(-c3ccc4cn[nH]c4c3)cn3ncnc23)ccc1N1CCOCC1 [I1] | 1.95
* c1nc2c(Nc3ccc(N4CCN(C5COC5)CC4)cc3)nc(-c3ccc4cc[nH]c4c3)cn2n1 [I57] | 4.16
* COc1cc(Nc2nc(-c3ccc4cn[nH]c4c3)cn3ncnc23)ccc1N1CCC(C)(O)CC1 [I22] | 2.03
* COc1cc(Nc2nc(-c3ccc4cc[nH]c4c3)cn3ncnc23)ccc1N1CCOCC1 [I2] | 2.84
* COc1cc(Nc2nc(-c3ccc4cn[nH]c4c3)cn3ncnc23)ccc1N1CCN(C2COC2)CC1 [I54] | 2.43
* c1nc2c(Nc3ccc(N4CCN(C5COC5)CC4)cc3)nc(-c3ccc4cn[nH]c4c3)cn2n1 [I53] | 3.88
